Assay: Clearance in SD rat at 2 mg/kg, iv after 0.25 to 24 hrs by LC/MS/MS method
Assay type: ADME, organism-based
Conditions: in vivo
Observed Property: clearance (mL/min/kg)

Mol Smiles	Observed Property	Unit Info	Test Result
COc1cc(-c2cncc(-c3ccc(C4CCN(C)CC4)cc3)c2C)cc(OC)c1OC	clearance	mL/min/kg	15.1
COc1cc(-c2cncc(-c3ccc(N4CCNCC4)cc3)c2C)cc(OC)c1OC	clearance	mL/min/kg	22.1

* * *

Assay: Apparent permeability across basolateral to apical side in human Caco2 cells at 5 uM after 120 mins by LC-MS/MS analysis
Assay type: ADME, cell-based
Details: Caco-2
Observed Property: Papp B→A at 2 h, 5 µM (×10⁻⁶ cm/s)

Mol Smiles	Test Result
COc1cc(-c2cncc(-c3ccc(C4=CCNCC4)cc3)c2C)cc(OC)c1OC	3.9
COc1cc(-c2cncc(-c3ccc(N4CCN(S(C)(=O)=O)CC4)cc3)c2C)cc(OC)c1OC	33.8
COc1cc(-c2cncc(-c3ccc(OC4CCNCC4)cc3)c2C)cc(OC)c1OC	9.4

* * *

Assay: Oral bioavailability in SD rat at 10 mg/kg after 0.25 to 24 hrs by LC/MS/MS method
Format: ADME, organism-based
Conditions: in vivo

Mol Smiles	bioavailability, %
COc1cc(-c2cncc(-c3ccc(N4CCNCC4)cc3)c2C)cc(OC)c1OC	96
COc1cc(-c2cncc(-c3ccc(C4CCN(C)CC4)cc3)c2C)cc(OC)c1OC	50

* * *

Target: UniProt P08913
Sequence (P08913 whole entry): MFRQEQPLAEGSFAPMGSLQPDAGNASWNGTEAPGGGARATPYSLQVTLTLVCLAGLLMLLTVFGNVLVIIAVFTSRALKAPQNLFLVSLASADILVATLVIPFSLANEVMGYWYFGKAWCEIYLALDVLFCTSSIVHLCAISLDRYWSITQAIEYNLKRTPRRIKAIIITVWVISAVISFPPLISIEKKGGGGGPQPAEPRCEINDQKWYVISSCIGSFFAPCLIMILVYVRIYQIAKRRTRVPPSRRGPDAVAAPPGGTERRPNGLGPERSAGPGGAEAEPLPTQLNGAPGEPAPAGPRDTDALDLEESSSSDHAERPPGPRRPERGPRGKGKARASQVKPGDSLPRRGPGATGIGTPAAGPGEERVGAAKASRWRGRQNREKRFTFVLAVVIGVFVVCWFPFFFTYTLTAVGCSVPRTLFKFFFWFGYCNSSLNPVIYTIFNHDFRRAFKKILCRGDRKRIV
Assay: Inhibition of recombinant human adrenergic alpha2A receptor at 10 uM incubated for 60 mins by scintillation counting method relative to control
Observed Property: inhibition at 1 h, 10 µM (%)

Mol Smiles	Test Result
COc1cc(-c2cncc(-c3ccc(N4CCNCC4)cc3)c2C)cc(OC)c1OC	90

* * *

Biological target: Cytochrome P450 2D6 (Homo sapiens)
Sequence (P10635 whole entry): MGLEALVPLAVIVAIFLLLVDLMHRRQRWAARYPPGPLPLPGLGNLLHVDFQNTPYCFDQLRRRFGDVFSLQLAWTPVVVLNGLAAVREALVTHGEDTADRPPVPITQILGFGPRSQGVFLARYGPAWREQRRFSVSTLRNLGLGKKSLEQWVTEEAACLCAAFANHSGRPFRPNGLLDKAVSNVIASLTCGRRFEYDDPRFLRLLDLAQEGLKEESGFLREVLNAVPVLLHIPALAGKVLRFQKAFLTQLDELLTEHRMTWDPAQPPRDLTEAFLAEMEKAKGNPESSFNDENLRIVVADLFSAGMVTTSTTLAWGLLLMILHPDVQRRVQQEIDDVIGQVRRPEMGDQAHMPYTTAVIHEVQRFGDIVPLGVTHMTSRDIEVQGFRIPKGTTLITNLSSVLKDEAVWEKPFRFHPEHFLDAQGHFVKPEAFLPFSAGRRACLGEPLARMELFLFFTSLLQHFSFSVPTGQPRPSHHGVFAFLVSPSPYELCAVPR
Observed Property: IC50

Mol Smiles	Experimental Target	Test Result
COc1cc(-c2cncc(-c3ccc(N4CCNCC4)cc3)c2C)cc(OC)c1OC	Cytochrome P450 2D6 (Homo sapiens)	> 30 µM

* * *

Assay: Ratio of drug level in brain to plasma in CB17 SCID mouse at 25 mg/kg, po measured at 4 h
Assay type: ADME, organism-based
Conditions: read-out: BPR

Mol Smiles	Kp at 4 h
COc1cc(-c2cncc(-c3ccc(N4CCNCC4)cc3)c2C)cc(OC)c1OC	1.5
